Biological target: T1, P12bH1
T1 chain: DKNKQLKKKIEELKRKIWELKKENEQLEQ
Assay: two-hybrid library CCNG1;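 note: natural log of median RNA to DNA barcode read ratio; higher means stronger binding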
Measured Property: interaction score

DKNKQLKKENEELERKIWELKKKIEQLKQ [P10bH1]
-0.838

[I] DENKQLEKEIEELEREIWELEKKNEQLKQ [P11bH1]
[II] DKNKQLKKKIEELKRKIWELKKENEQLEQ [P12bH1]
[III] DEIQQLKQKIQELEQENQELKWKIQELEQ [4H797-bN]
Arrange by interaction score, high to low. To answer, arrange all of the labels according to the requested order.
I, III, II
